Value source: the Deep4Chem optical property database

Measured log10 fluorescence lifetime, listed per entry for reference.
test_name: solvent given as SMILES
measurement_parameters: in CO
Record value = log10 of fluorescence lifetime given in ns.

Some molecules with known log10 fluorescence lifetime results, for comparison:
>  <molecule>
CCCCC1=Cc2c3ccc4cccc5ccc(c6cc(-c7ccccc7)n(c26)P1(=O)c1ccccc1)c3c45 (centres undefined)

>  <measurement>
0.23

$$$$
>  <molecule>
O=C(O)COc1ccc2[nH]c3c(c2c1)CCCC3=O

>  <measurement>
0.24

$$$$
>  <molecule>
NS(=O)(=O)c1ccc(N2N=C(c3ccc(O)cc3)CC2c2ccc([N+](=O)[O-])cc2)cc1 (centres undefined)

>  <measurement>
0.15

$$$$
>  <molecule>
C(#Cc1ccc(-n2c3ccccc3c3ccccc32)cc1)c1ccccc1

>  <measurement>
0.57

$$$$
>  <molecule>
CC1(C)C(/C=C/C2=C(c3ccc(C(=O)O)cc3)C(=C/C=C3/N(CCCCS(=O)(=O)[O-])c4ccc5ccccc5c4C3(C)C)/CCC2)=[N+](CCCCS(=O)(=O)[O-])c2ccc3ccccc3c21

>  <measurement>
-0.21

$$$$
>  <molecule>
O=C1/C(=C2\Sc3ccc(S(=O)(=O)O)cc3C2=O)Sc2ccc(S(=O)(=O)O)cc21

>  <measurement>
0.00

$$$$
>  <molecule>
CCC1=C(C)C2=Cc3cc(I)c(I)n3[B-](F)(F)[N+]2=C1C

>  <measurement>
-0.07

$$$$
>  <molecule>
CN(C)c1ccc(/C=C/c2cc[n+](Cc3cc(C[n+]4ccc(/C=C/c5ccc(N(C)C)cc5)cc4)cc(C[n+]4ccc(/C=C/c5ccc(N(C)C)cc5)cc4)c3)cc2)cc1

>  <measurement>
-1.40

$$$$

Then this molecule:
Item under review: COC(=O)C(NC(=O)OC(C)(C)C)c1ccc2oc(-c3cc(OC)ccc3OC)nc2c1 (centres undefined) . Reported log10 fluorescence lifetime?
0.31
